# tested_system: RSK family kinase
# measurement_description: Kinome-wide profiling, RSK family
# applied_conditions: read-out: Kds, RSK family; kinome-wide data
pKd: −log10 of the molar value.
outcome_measure: pKd

Measured pKd, CC(C)CCN1c2nc(Nc3cc(F)c(O)c(F)c3)ncc2N(C)C(=O)C1C (stereo not shown) : 7.00 to 8.00

---

# Test system: MV4-11 AML cells
# measurement_description: MV4-11 proliferation assay
# Format: cell-based, human
# applied_conditions: Homo sapiens, MV4-11, 72 h, read-out: IC50, proliferation of MV4-11 AML cells
pIC50: −log10 of the molar value.
outcome_measure: pIC50

Measured pIC50, N#CC[C@H](C1CCCC1)n1cc(-c2ncnc3[nH]ccc23)cn1 [ruxolitinib] : ~5.00
